Hey, just so you know, these numbers are from patent EP0603240B1.

- Tested on: barnyardgrass (Echinochloa crusgalli)
- experiment: Example 22: retest of Example 21 at reduced greenhouse temperatures
- Assay type: in vivo
- measurement-context: Table 22; Herbicide No.1 0.56 Kg/ha + SUTAN + 8.96 Kg/ha + antidote 2.24 Kg/ha
recorded-metric: % Injury BYG (%)

>>> meas_value("CC1(C)OC(c2ccco2)CN1C(=O)C(Cl)Cl (centres unmarked)")
85
>>> meas_value("C=CCN(CC=C)C(=O)C(Cl)Cl")
93
>>> meas_value("O=C(C(Cl)Cl)N1CCOC12CCCCC2")
90
>>> meas_value("CC1(C(Cl)Cl)OCCO1")
90
>>> meas_value("O=C1OC(=O)c2cccc3cccc1c23")
80
